- Protocol details: anti-His antibody binders, primary screen, artefact control for SMM control protein annotation, biochemical, small-molecule microarray, 635 nm fluorescence (AID 1128);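 note: score merges feature fluorescence with signal-to-noise for each printed compound spot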
- Conditions: anti-His Alexa647 antibody binding, higher = more signal
Measurement name: composite z-score
API note: the answer field is a bare number with no unit suffix.

{"columns": ["Compound", "composite z-score"],
 "data": [
  ["COCCOC(=O)N1C(=O)[C@@]2(c3cc(C#CCC(C(=O)OC)C(=O)OC)ccc31)[C@H](C(=O)Nc1nc3ccccc3s1)[C@H]1C(=O)O[C@H](c3ccccc3)[C@H](c3ccccc3)N1[C@@H]2c1ccccc1OCCO", 1.41],
  ["O=C1O[C@@H](c2ccccc2)[C@@H](c2ccccc2)N2[C@@H](c3ccccc3OCCO)[C@]3(C(=O)Nc4ccccc43)[C@@H](C(=O)Nc3nc4ccccc4s3)[C@H]12", 0.858],
  ["NC(=O)NCC#Cc1ccc2c(c1)[C@]1(C(=O)N2)[C@H](c2ccc(O)cc2)N2[C@H](c3ccccc3)[C@H](c3ccccc3)OC(=O)[C@H]2[C@@H]1C(=O)O", 0.948],
  ["O=C(N1CCCCC1)[C@]1(Cc2ccccc2)N=C(c2ccc(OCCCO)cc2)O[C@@H]1c1ccccc1", 2.63],
  ["O=C1NC(=O)C2C1C=CC(C(O)c1cc(C(F)(F)F)cc(C(F)(F)F)c1)N2Nc1ccccn1 (configuration not stated)", 0.191],
  ["CCOC(=O)C1=C[C@@H](C(C)(C)C)N(S(=O)(=O)c2ccc(C)cc2)[C@H]1c1ccc(F)cc1", 0.416],
  ["COc1cc2c(cc1OC)CN(C(=O)[C@H]1[C@@H]3C(=O)O[C@@H](c4ccccc4)[C@@H](c4ccccc4)N3[C@@H](c3ccc(O)cc3)[C@]13C(=O)Nc1ccccc13)CC2", 1.65],
  ["C[N+](C)(C)CCCCNC(=O)[C@@H]1C[C@@H]2C(=O)N[C@@H](Cc3ccccc3)C(=O)N2[C@@H]1c1cccc(OCCO)c1", 3.38],
  ["CCOC(=O)C[C@H]1[C@H](OC(=O)c2ccc(C(=O)c3ccccc3)cc2)[C@@H](NC(=O)c2ccc3ccccc3c2)c2cc(OCCCO)ccc2N1C(=O)Cc1ccc(OC)cc1", 0.0204],
  ["Cc1ccc(S[C@]2(C(=O)NCCCN(C)C)CC(=O)N(Cc3cc(C(F)(F)F)cc(C(F)(F)F)c3)[C@@H]2c2ccc(CO)cc2)cc1", -0.237]
]}

[Q] Let me know recorded composite z-score for "C=CC(=C)[C@H]1Oc2ccccc2S(=O)(=O)N2CCC[C@@H]12" , thanks.
[A] -0.133

[Q] Let me know recorded composite z-score for "CCCC[C@@H]1C[C@H]1[C@@H](NC(=O)c1cccs1)c1ccc(-c2ccccc2)cc1" , thanks.
[A] 0.433

[Q] Let me know recorded composite z-score for "Oc1ccc2cc[n+](Cc3sc4ccccc4c3Cl)cc2c1" , thanks.
[A] -0.146

[Q] Let me know recorded composite z-score for "O=C1C[C@@](C(=O)NCC(F)(F)F)(c2ccc([N+](=O)[O-])cc2)[C@@H](c2ccc(CO)cc2I)N1C1CCCCC1" , thanks.
[A] 0.226

[Q] Let me know recorded composite z-score for "CO[C@H]1O[C@H](CO)[C@@H](OC(=O)Nc2ccc(Oc3ccccc3)cc2)[C@H](OC(=O)Nc2ccc3c(c2)OCO3)[C@H]1OC(=O)Nc1ccc2c(c1)OCO2" , thanks.
[A] 1.83

[Q] Let me know recorded composite z-score for C=C(C)[C@@H]1CC=C(C(O)C2C=CC3C(=O)N(C)C(=O)C3N2Nc2ccccc2)CC1 (some centres not stated) , thanks.
[A] -0.243

[Q] Let me know recorded composite z-score for "C=C(CCCC)/C(=C/C[C@H](OC(C)=O)c1ccccc1OCCO)c1cc(C(=O)OC)ccc1OC" , thanks.
[A] -0.33

[Q] Let me know recorded composite z-score for "CC(C)[Si](C#Cc1ccc(Oc2ccccc2)cc1)(O[Si](C#Cc1ccc(Oc2ccccc2)cc1)(C(C)C)C(C)C)C(C)C" , thanks.
[A] 1.69

[Q] Let me know recorded composite z-score for "COCCOC(=O)N1C(=O)[C@@]2(c3cc(C#Cc4ccc(OC)cc4)ccc31)[C@H](c1ccc(OCCO)cc1)N1[C@H](c3ccccc3)[C@H](c3ccccc3)OC(=O)[C@H]1[C@@H]2C(=O)N1CCN(c2ncccn2)CC1" , thanks.
[A] 0.343

[Q] Let me know recorded composite z-score for "COCCOC(=O)N1C(=O)[C@@]2(c3cc(C#CCC(C(=O)OC)C(=O)OC)ccc31)[C@H](C(=O)N1CCN(c3ncccn3)CC1)[C@H]1C(=O)O[C@H](c3ccccc3)[C@H](c3ccccc3)N1[C@@H]2c1ccccc1OCCO" , thanks.
[A] 1.02

[Q] Let me know recorded composite z-score for "COC(=O)[C@@]1(Cc2ccc(F)cc2)[C@H]2c3cc(C(=O)N(C)C)n(Cc4cc(F)c(F)c(F)c4)c3C[C@H]2CN1C(=O)c1ccccc1" , thanks.
[A] 1.13

[Q] Let me know recorded composite z-score for CN1C(=O)C2C=CC(C(O)c3ccc([N+](=O)[O-])cc3)N(N3CCCCC3)C2C1=O (configuration not stated) , thanks.
[A] 0.922

[Q] Let me know recorded composite z-score for "C=CCNC(=O)[C@@H]1[C@H]2C(=O)O[C@H](c3ccccc3)[C@H](c3ccccc3)N2[C@H](c2ccc(O)cc2)[C@@]12C(=O)Nc1ccc(C#CCNC(N)=O)cc12" , thanks.
[A] -0.22

====

- Experimental target: Alpha-bungarotoxin (Bungarus multicinctus)
- Protocol details: alpha-bungarotoxin binders on microarray, profiling panel, artefact control for SMM control protein annotation, biochemical, small-molecule microarray, Alexa647 label, 635/667 nm fluorescence (AID 1117)
- Conditions: alpha-BTX-A647 binding fluorescence, higher = more signal
Measurement name: composite z-score

Known composite z-score results, listed for orientation:
{"columns": ["Compound", "Experimental target", "Value reported"],
 "data": [
  ["Cc1ccc(S[C@]2(C(=O)O)CC(=O)N(C(C)C)[C@@H]2c2ccc(CO)cc2I)cc1", "Alpha-bungarotoxin (Bungarus multicinctus)", 1.18],
  ["CC(C)C[C@@H]1NC(=O)[C@H](C(C)C)NC(=O)[C@@]23C(=O)N[C@@H](Cc4ccccc4)C2[C@H](C)[C@@]2(C)O[C@H]2C3/C=C/CC/C=C/CNC1=O (some centres not stated)", "Alpha-bungarotoxin (Bungarus multicinctus)", 0.705],
  ["NC(=O)NCC#Cc1ccc2c(c1)[C@]1(C(=O)N2)[C@H](C(=O)Nc2nc3ccccc3s2)[C@H]2C(=O)O[C@H](c3ccccc3)[C@H](c3ccccc3)N2[C@@H]1c1ccccc1OCCO", "Alpha-bungarotoxin (Bungarus multicinctus)", 2.74],
  ["CCOC(=O)C[C@H]1[C@H](OC(=O)c2ccc(C(=O)c3ccccc3)cc2)[C@@H](NC(=O)c2ccc3ccccc3c2)c2cc(OCCCO)ccc2N1C(=O)Cc1ccc(OC)cc1", "Alpha-bungarotoxin (Bungarus multicinctus)", 0.729],
  ["CCCCN1CC=CC23O[C@@H]4C=CCCOC(=O)C4[C@H]2C(=O)N(CCCCCCO)[C@@H]3C1=O (some centres not stated)", "Alpha-bungarotoxin (Bungarus multicinctus)", -0.324],
  ["CNS(=O)(=O)c1ccc(C)cc1", "Alpha-bungarotoxin (Bungarus multicinctus)", 0.514]
]}

[Q] Give composite z-score only, for "COC(=O)[C@@]1(Cc2ccc(OC)cc2)[C@H]2c3cc(C(=O)N4CCCC4)n(Cc4ccc(O)c(OC)c4)c3C[C@H]2CN1C(=O)c1ccccc1" , using Alpha-bungarotoxin (Bungarus multicinctus) data.
[A] 1.25

[Q] Give composite z-score only, for "CCCCCCc1nc(-c2cc(C)c(OC)c(C)c2)cc2c1[Si](C(C)C)(C(C)C)OC2" , using Alpha-bungarotoxin (Bungarus multicinctus) data.
[A] 0.19

[Q] Give composite z-score only, for "C=C[C@H](CO[Si](CC)(CC)CC)N(Cc1ccc(OC(C)=O)c(OC)c1)S(=O)(=O)c1ccc(Br)cc1" , using Alpha-bungarotoxin (Bungarus multicinctus) data.
[A] 1.23

[Q] Give composite z-score only, for O=C1NC(=O)C2C1C=CC(C(O)c1cc(C(F)(F)F)cc(C(F)(F)F)c1)N2Nc1ccccn1 (configuration not stated) , using Alpha-bungarotoxin (Bungarus multicinctus) data.
[A] 0.143

[Q] Give composite z-score only, for "O=C(c1ccccc1)N1C(=O)[C@@]2(Cc3ccccc31)N=C(c1ccc(OCCCO)cc1)O[C@H]2c1ccccc1" , using Alpha-bungarotoxin (Bungarus multicinctus) data.
[A] 0.902

====

- Experimental target: Streptavidin (Streptomyces avidinii) (UniProt P22629)
- Sequence (P22629 whole entry, looked up): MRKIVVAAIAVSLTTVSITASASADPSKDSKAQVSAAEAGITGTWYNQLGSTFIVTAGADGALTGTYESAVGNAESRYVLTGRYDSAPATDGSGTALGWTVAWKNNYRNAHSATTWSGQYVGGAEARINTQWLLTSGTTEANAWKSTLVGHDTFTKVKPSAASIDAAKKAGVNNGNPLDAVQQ
- Protocol details: streptavidin binders on small-molecule microarray, primary screen, artefact control for SMM compound annotation, biophysical, 635/667 nm fluorescence (AID 1147);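 note: signal reflects streptavidin binding to arrayed compounds as a control protein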
- Conditions: streptavidin binding, higher = more signal
Measurement name: composite z-score
API note: the answer field is a bare number with no unit suffix.

Known composite z-score results, listed for orientation:
{"columns": ["Compound", "Experimental target", "composite z-score"],
 "data": [
  ["COCCOC(=O)N1C(=O)[C@@]2(c3cc(C#CCNC(N)=O)ccc31)[C@H](C(=O)N1CCN(c3ncccn3)CC1)[C@H]1C(=O)O[C@H](c3ccccc3)[C@H](c3ccccc3)N1[C@@H]2c1ccc(OCCO)cc1", "Streptavidin (Streptomyces avidinii) (UniProt P22629)", 0.619],
  ["O=C1OCCC/C=C\\[C@H]2OC34C=CCN(Cc5ccccc5)C(=O)[C@H]3N(CCCO)C(=O)[C@@H]4C12 (some centres undefined)", "Streptavidin (Streptomyces avidinii) (UniProt P22629)", -1.1]
]}

[Q] Give composite z-score only, for "CC(C)CNC(=O)[C@@]1(Cc2ccccc2I)c2ccccc2C(=O)N(C2CCCCC2)[C@H]1c1ccc(CO)cc1" , using Streptavidin (Streptomyces avidinii) (UniProt P22629) data.
[A] -0.346

[Q] Give composite z-score only, for "C=C(/C(=C/C[C@H](OC(C)=O)c1ccccc1OCCO)c1cnc2ccccc2c1)C(C)C" , using Streptavidin (Streptomyces avidinii) (UniProt P22629) data.
[A] 0.533
